Tested on: E. faecalis ATCC 10541
Experiment: Checkerboard microdilution MIC with PFOB, Table 2
Format: cell-based
Details: Enterococcus faecalis, ATCC10541; E. faecalis ATCC 10541; partner antibiotic alone; read-out: MIC (alone) of Partner
Description: The aim of the study was to detect any synergy between PFOB and the other antibiotics. For the purposes of the study, synergy was defined in accordance with the FIC (fractional inhibitory concentration) index, as disclosed by Lorian (1991, In “Antibiotics in Laboratory Medicine” 3rd edition, Eds. Williams & Wilkins; esp. p 434-443).
Below, each of the molecules is paired with its reported MIC value.
measurement label: MIC (µg/mL)

- record smiles: "CO/N=C(\\C(=O)N[C@@H]1C(=O)N2C(C(=O)O)=C(COC(N)=O)CS[C@H]12)c1ccco1"
  target: "E. faecalis ATCC 10541"
  measurement label: "MIC"
  measure unit: "µg/mL"
  value modifier: ">"
  value reported: 64
- record smiles: "CC(C)(O/N=C(\\C(=O)N[C@@H]1C(=O)N2C(C(=O)[O-])=C(C[n+]3ccccc3)CS[C@H]12)c1csc(N)n1)C(=O)O"
  target: "E. faecalis ATCC 10541"
  measurement label: "MIC"
  measure unit: "µg/mL"
  value modifier: ">"
  value reported: 64
- record smiles: "CC1(C)S[C@@H]2[C@H](NC(=O)[C@H](N)c3ccccc3)C(=O)N2[C@H]1C(=O)O"
  target: "E. faecalis ATCC 10541"
  measurement label: "MIC"
  measure unit: "µg/mL"
  value modifier: "="
  value reported: 1
- record smiles: "C[C@@H](O)[C@H]1C(=O)N2C(C(=O)O)=C(SCCN=CN)C[C@H]12"
  target: "E. faecalis ATCC 10541"
  measurement label: "MIC"
  measure unit: "µg/mL"
  value modifier: "="
  value reported: 1
